# System: Plasmodium falciparum
# TEST: Antimalarial activity against Plasmodium falciparum 3D7 by reduced [3H]hypoxanthine uptake
# Assay type: functional, organism-based
pEC50: −log10 of the molar value.
READOUT KIND: pEC50

Sample answers from the record:
Cc1ccc(-c2ccc(Oc3ccc(Cl)cc3Cl)c(O)c2)cc1; 5.54
CCCCc1ccc(Oc2ccc(Cl)cc2Cl)c(O)c1; 5.46
N#Cc1ccc(Oc2ccc(Cl)cc2Cl)c(O)c1; 4.72

[I] Oc1cc(-c2ccccc2)ccc1Oc1ccc(Cl)cc1Cl
[II] N#Cc1ccc(Oc2ccc(-c3ccccn3)cc2O)c(Cl)c1
[III] NC(=O)c1ccc(Oc2ccc(Cl)cc2Cl)c(O)c1
[IV] Oc1cc(-c2cccnc2)ccc1Oc1ccc(Cl)cc1Cl
Input line: List the 4 entries from lowest pEC50 to highest pEC50 value. Please reply with the labels ordered as requested. Many thanks.
Output line: III, IV, II, I
(III: 4.40, IV: 4.64, II: 5.09, I: 5.64)

[1] Cc1ccccc1-c1ccc(Oc2ccc(C#N)cc2Cl)c(O)c1
[2] N#Cc1ccc(Oc2ccc(-c3ccncc3)cc2O)c(Cl)c1
Input line: Could you check which of 1 and 2 has a smaller value for pEC50? Let me know the label of the one you choose.
Output line: 2
(2: 4.96, 1: 5.59)

[I] CC(C)Cc1ccc(Oc2ccc(Cl)cc2Cl)c(O)c1
[II] Cc1cccc(-c2ccc(Oc3ccc(Cl)cc3Cl)c(O)c2)c1
Input line: Could you check which of I and II has a smaller value for pEC50? Let me know the label of the one you choose.
Output line: II
(II: 5.46, I: 5.70)

[1] Cc1ccccc1-c1ccc(Oc2ccc(Cl)cc2Cl)c(O)c1
[2] Oc1cc(Cc2ccccn2)ccc1Oc1ccc(Cl)cc1Cl
Input line: Larger number for pEC50: 1 , or 2 ? Let me know the label of the one you choose.
Output line: 1
